# MEASUREMENT_DESCRIPTION: CCTE_Shafer_MEA_dev_network_spike_number: CCTE's Neural Network Formation Assay for Number of Network Spikes, Shafer Lab (AID 2284048);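 further: synchronized bursts across electrodes counted on days 5 7 9 12 and integrated as AUC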;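 on AC50: fit as a loss of signal meaning fewer network spikes than DMSO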
Active and inactive are the calls of the source. How the source made its calls: active means hit-call score of the fitted dose curve at least 0.9, where 1 is the maximum; inactive means score below 0.9.
MEASUREMENT_KIND: AC50

CC(=O)[O-].CC(=O)[O-].O.O.O.[Pb+2] :: 2.98 µM (active)
CCC1(c2ccccc2)C(=O)NC(=O)NC1=O :: inactive
CCOP(=O)(OCC)OC(Cl)C(Cl)(Cl)Cl (configuration not stated) :: 0.833 µM (active)
C=CCN1CC[C@]23c4c5ccc(O)c4O[C@H]2C(=O)CC[C@@]3(O)[C@H]1C5 :: inactive
CN[C@]1(c2ccccc2Cl)CCCCC1=O :: inactive
CC1(C)[C@H](C=C(Cl)Cl)[C@H]1C(=O)OCc1c(F)c(F)cc(F)c1F :: 23.3 µM (active)
CN1C(=O)CN=C(c2ccccc2)c2cc(Cl)ccc21 :: inactive
Cc1ccc(OP(=O)(Oc2ccc(C)cc2)Oc2ccc(C)cc2)cc1 (tested in a mixture with another compound) :: inactive

Query CC1CCCC1.[C-]#[O+].[C-]#[O+].[C-]#[O+].[Mn] yields AC50 of inactive

Lab note: CCOP(=O)(OCC)SCSC(C)(C)C gave AC50 of inactive

Reported AC50 ( CP(=O)(O)CC[C@H](N)C(=O)O ) = inactive

The compound listed as Cn1nc(C(F)(F)F)c(CS(=O)(=O)C2=NOC(C)(C)C2)c1OC(F)F has a reported AC50 of inactive

* * *

# MEASUREMENT_DESCRIPTION: BSK_4H_SRB: Viability Assessment in the BioMAP Diversity Plus: 4H Assay (AID 2283027);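 further: cells exposed to compound for 24 h before staining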;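 on AC50: curves fitted both ways versus DMSO so AC50 may be loss or gain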
# SETUP_CONDITIONS: primary human endothelial cells (HUVEC)
Active and inactive are the calls of the source. How the source made its calls: active means hit-call score of the fitted dose curve at least 0.9, where 1 is the maximum; inactive means score below 0.9.
MEASUREMENT_KIND: AC50

Reference set (5 entries):
O=C(O)CCCc1ccc(N(CCCl)CCCl)cc1 :: 20 µM (active)
CC(C)(c1cc(Cl)c(O)c(Cl)c1)c1cc(Cl)c(O)c(Cl)c1 :: 29 µM (active)
CCCCCCCCCCCC#N :: 30.3 µM (active)
O=P1(NCCCl)OCCCN1CCCl (stereo not drawn) :: inactive
Oc1ccc(C2(c3ccc(O)cc3)c3ccccc3-c3ccccc32)cc1 :: 11.9 µM (active)

In plain terms, N#CCCCCC#N has a documented AC50 of inactive

According to the records, this compound Oc1cc(Cl)ccc1Cl displays AC50 of inactive

The reported value for O=C1C(Cl)=C(Cl)C(=O)C(Cl)=C1Cl in terms of AC50 is 11.9 µM (active)

* * *

# TESTED_SYSTEM: Cellular tumor antigen p53 (Homo sapiens) (UniProt P04637)
# Sequence (P04637 whole entry, looked up): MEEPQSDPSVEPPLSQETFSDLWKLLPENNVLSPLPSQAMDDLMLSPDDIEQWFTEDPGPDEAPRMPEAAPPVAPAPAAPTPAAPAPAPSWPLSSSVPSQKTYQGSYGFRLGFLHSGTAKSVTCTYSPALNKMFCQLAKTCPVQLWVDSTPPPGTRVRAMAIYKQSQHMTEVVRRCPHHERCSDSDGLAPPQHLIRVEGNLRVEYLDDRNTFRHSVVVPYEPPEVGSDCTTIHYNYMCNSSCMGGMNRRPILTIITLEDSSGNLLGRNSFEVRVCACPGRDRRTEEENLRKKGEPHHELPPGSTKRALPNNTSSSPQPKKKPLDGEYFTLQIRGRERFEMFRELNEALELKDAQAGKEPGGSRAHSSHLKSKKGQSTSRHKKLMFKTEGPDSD
# MEASUREMENT_DESCRIPTION: TOX21_p53_BLA_p3_ratio: Tox21 HCT-116 p53 Agonism Beta-lactamase Assay, Ratio, Phase 3 (AID 2283596)
Inconclusive results are not listed. Calls of active or inactive are those of the source. Rule for the calls: active = hit-call score of the fitted dose curve at least 0.9, where 1 is the maximum; inconclusive = response in the unintended direction; inactive = score below 0.9.
Give your call using only these classes: active, inactive

F/C(COc1ccc2c(c1)[nH]c1ccccc12)=C1/CN2CCC1CC2 :: inactive

Input line: Please let me know the test result on file for CC(C)(C#N)C(C)(C)C#N .
Output line: inactive

Input line: GET /call?item= NC1=NC(=O)C(c2ccccc2)O1 (stereo unspecified) returns the recorded outcome of this test.
Output line: inactive

* * *

# MEASUREMENT_DESCRIPTION: TOX21_p53_BLA_p2_viability: Viability Assessment in the Tox21 HCT-116 p53 Agonism Beta-lactamase Assay, Phase 2 (AID 2283591);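 further: compound exposure lasted 16 h at 37 °C; actives lower the ATP signal meaning cytotoxicity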
Results filed as inconclusive are left out. The source made the active and inactive calls. Rule for the calls: active = hit-call score of the fitted dose curve at least 0.9, where 1 is the maximum; inconclusive = response in the unintended direction; inactive = score below 0.9.
Mark one answer only. Choices: Yes for active, No for inactive

Example entries begin here.
O=C(O)c1ccc2[nH]cc(CCCCN3CC=C(c4ccccc4)CC3)c2c1 :: No
c1ccccc1 :: No
CC(Cc1ccc(C(C)(C)C)cc1)CN1C[C@@H](C)O[C@@H](C)C1 (some centres not stated) :: No
C[C@]12CC[C@H]3[C@@H](CCC4=CC(=O)CC[C@@H]43)[C@@H]1CC[C@@H]2O :: No
CS(=O)(=O)Cl :: No

Input line: Field: outcome | Entry: CNC(C)(C)Cc1ccccc1
Output line: No

Input line: # outcome recorded in this test, key = CCN(CC)C(=O)N[C@H]1C[C@@H]2c3cccc4[nH]cc(c34)C[C@H]2N(C)C1
Output line: No

Input line: What classification did CCC(=O)O[C@]1(c2ccccc2)CCN(C)C[C@H]1C end up with in this test?
Output line: No

* * *

# TESTED_SYSTEM: Transcriptional activator Myb (Homo sapiens) (UniProt P10242)
# Sequence (P10242 whole entry, looked up): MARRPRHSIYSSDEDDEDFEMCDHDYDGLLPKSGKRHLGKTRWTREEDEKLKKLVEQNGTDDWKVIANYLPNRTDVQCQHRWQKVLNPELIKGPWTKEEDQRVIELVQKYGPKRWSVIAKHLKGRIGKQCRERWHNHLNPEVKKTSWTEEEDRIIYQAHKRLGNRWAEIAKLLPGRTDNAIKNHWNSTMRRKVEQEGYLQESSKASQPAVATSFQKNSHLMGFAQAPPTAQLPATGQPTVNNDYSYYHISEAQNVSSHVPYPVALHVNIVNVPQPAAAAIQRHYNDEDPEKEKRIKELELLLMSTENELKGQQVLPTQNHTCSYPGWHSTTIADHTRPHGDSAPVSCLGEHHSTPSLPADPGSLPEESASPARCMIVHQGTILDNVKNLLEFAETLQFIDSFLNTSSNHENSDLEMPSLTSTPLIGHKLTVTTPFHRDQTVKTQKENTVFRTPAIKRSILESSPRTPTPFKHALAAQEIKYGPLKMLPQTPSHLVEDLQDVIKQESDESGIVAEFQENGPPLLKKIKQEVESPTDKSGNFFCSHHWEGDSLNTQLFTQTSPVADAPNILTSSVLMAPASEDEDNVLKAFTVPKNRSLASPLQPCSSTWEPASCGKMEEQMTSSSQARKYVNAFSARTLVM
# MEASUREMENT_DESCRIPTION: ATG_Myb_CIS: Attagene CIS-FACTORIAL HepG2 Assay for human Myeloblastosis (Myb) Proto-Oncogene Transcription Factor (AID 2282986)
# SETUP_CONDITIONS: HepG2 Attagene CIS-FACTORIAL Myb reporter transcription; actives raise or lower the signal
Calls of active or inactive are those of the source. The calls were made as follows: active = hit-call score of the fitted dose curve at least 0.9, where 1 is the maximum; inactive = score below 0.9.
Would you mind answering with one of these outcomes? active, inactive

CC(Cc1ccc(C(C)(C)C)cc1)CN1C[C@@H](C)O[C@@H](C)C1 (stereo partly drawn) :: inactive
CC1(C)[C@H](C(=O)O[C@H](C#N)c2cccc(Oc3ccccc3)c2)[C@@H]1C=C(Br)Br :: inactive
O=P(O)(Oc1ccccc1)Oc1ccccc1 :: inactive
O=C(NC(=O)c1c(F)cccc1F)Nc1ccc(Oc2ccc(C(F)(F)F)cc2Cl)cc1F :: inactive
O=P1(NCCCl)OCCCN1CCCl (stereo not drawn) :: inactive

Input line: What outcome does the record of this test show for CC1(C)CC(=O)CC(C)(C)N1[O] ?
Output line: inactive

Input line: Can you look up the reported call for CC(=O)C=Cc1ccccc1 for me?
Output line: active

Input line: What did this assay record as the result for N#CCCCCC#N ?
Output line: inactive

Input line: Per the assay record, what outcome was assigned to CC1(C)C(=O)NC(=O)NC1=O ?
Output line: inactive

Input line: Short answer needed: outcome of this test for COc1cc(OC)c(OC)cc1C=O ?
Output line: inactive

* * *

# TESTED_SYSTEM: human Ephrin type-A Receptor 2 (EphA2), EPHA2 (gene 1969)
# MEASUREMENT_DESCRIPTION: NVS_ENZ_hEphA2: NovaScreen (NVS) Enzymatic Assay for human Ephrin type-A Receptor 2 (EphA2) (AID 2283155)
Results filed as inconclusive are left out. Calls of active or inactive are those of the source. Rule for the calls: active = hit-call score of the fitted dose curve at least 0.9, where 1 is the maximum; inconclusive = response in the unintended direction; inactive = score below 0.9.
MEASUREMENT_KIND: outcome

c1ccc2[nH]c(-c3cscn3)nc2c1 :: inactive
CC1=C(/C=C/C(C)=C/C=C/C(C)=C/CO)C(C)(C)CCC1 :: inactive
CCOC(=O)NCCOc1ccc(Oc2ccccc2)cc1 :: inactive

* * *

# MEASUREMENT_DESCRIPTION: ATG_CMV_CIS: Attagene CIS-FACTORIAL HepG2 Assay for human CMV (Internal Marker) (AID 2282928);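 further: endpoint acts as a background internal control marker rather than a target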
# SETUP_CONDITIONS: HepG2 CMV promoter reporter, transcription factor profiling; actives raise or lower the signal
Active and inactive are the calls of the source. Rule for the calls: active = hit-call score of the fitted dose curve at least 0.9, where 1 is the maximum; inactive = score below 0.9.
Please answer using one outcome listed in active, inactive

// below: answered compounds
C=CC(=O)OCCCCOC(=O)C=C :: active
O=C1Nc2ccc(Cl)cc2C(c2ccccc2)=NC1O (stereo unspecified) :: inactive
CCCCCCCCCCCC#N :: active
COCC(=O)N(c1c(C)cccc1C)N1CCOC1=O :: inactive
Cc1ccc(C)c2ccccc12 :: inactive

Input line: Which outcome did this test record for the compound CN(C)N ?
Output line: inactive

* * *

# MEASUREMENT_DESCRIPTION: IUF_NPC2-5_cytotoxicity_72hr: Cytotoxicity Assessment at 72 hours in the Leibniz Research Institute for Environmental Medicine (IUF) Neural Progenitor Cell Migration and Differentiation Assay for Cytotoxicity (NPC2-5) (AID 2284306);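 further: LDH release into supernatant measured by resorufin fluorescence marking membrane damage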
Records with an inconclusive call do not appear. Activity calls are given as the source filed them. Rule for the calls: active = hit-call score of the fitted dose curve at least 0.9, where 1 is the maximum; inconclusive = response in the unintended direction; inactive = score below 0.9.
Could you please pick one outcome from this set? active, inactive

[Cd+2].[Cl-].[Cl-] :: active
C[n+]1ccc(-c2cc[n+](C)cc2)cc1 :: inactive
CCOP(=O)(OCC)SCSCC :: inactive
CC(=O)[O-].CC(=O)[O-].O.O.O.[Pb+2] :: inactive
CC1(C)C(C=C(Cl)c2ccc(Cl)cc2)C1C(=O)OC(C#N)c1ccc(F)c(Oc2ccccc2)c1 (configuration not stated) :: inactive

Input line: Would you mind telling me which call this test gave CP(=O)(O)CCC(N)C(=O)O (configuration not stated) ?
Output line: inactive

Input line: Call for entry CCOP(=O)(OCC)SCSC(C)(C)C :
Output line: inactive

* * *

# TESTED_SYSTEM: Cellular tumor antigen p53 (Homo sapiens)
# MEASUREMENT_DESCRIPTION: TOX21_p53_BLA_p3_ratio: Tox21 HCT-116 p53 Agonism Beta-lactamase Assay, Ratio, Phase 3 (AID 2283596)
Inconclusive results are not listed. Calls of active or inactive are those of the source. How the source made its calls: active means hit-call score of the fitted dose curve at least 0.9, where 1 is the maximum; inconclusive means response in the unintended direction; inactive means score below 0.9.
Returns: one label drawn from active, inactive

CNC(C)Cc1ccc2c(c1)OCO2 (configuration not stated) :: inactive

Input line: I would be grateful if you could indicate the recorded call for O=[N+]([O-])c1ccccc1-c1ccccc1 .
Output line: inactive

Input line: In this assay, the call recorded for O=[N+]([O-])c1cc(C(F)(F)F)c(Cl)c([N+](=O)[O-])c1Cl was what?
Output line: active

Input line: Assay result, entry O=C(Nc1ccccc1)N(Cc1ccc(Cl)cc1)C1CCCC1 — outcome?
Output line: inactive

Input line: Per the records of this test, what outcome belongs to CC(=O)O[C@H]1CC[C@@]2(C)C(=CC[C@@H]3[C@@H]2CC[C@]2(C)C(=O)CC[C@@H]32)C1 ?
Output line: inactive

Input line: Dear all, I need the recorded test outcome for Nc1ccncc1 , thank you.
Output line: inactive

Input line: Returns: the outcome recorded for CN[C@H]1C[C@@H](N)[C@H](O)[C@@H](O[C@@H]2O[C@H](CO)[C@H](O)[C@@H]3OC4(O[C@H]23)O[C@H](C(N)CO)[C@H](O)[C@H](O)C4O)[C@@H]1O (some centres not stated) in this assay.
Output line: inactive

Input line: Could you kindly confirm the outcome this assay logged for CCC[N+](=O)[O-] ?
Output line: inactive

Input line: Short answer needed: outcome of this test for N#CC(C#N)=Cc1cc(O)c(O)c(O)c1 ?
Output line: inactive

Input line: Fill in: this test's call for Cc1nnc2n1-c1sc(CCc3ccc(CC(C)C)cc3)cc1C(c1ccccc1Cl)=NC2C (configuration not stated) is ___
Output line: active

Input line: Assay outcome for COC(COC(N)=O)C1=C(N2CC2)C(=O)C(C)=C(N2CC2)C1=O (configuration not stated) : what was it?
Output line: active

Input line: Short answer needed: outcome of this test for c1ccc2cc3c(cc2c1)-c1cccc2cccc-3c12 ?
Output line: active

Input line: Name the outcome recorded for O=C1CCCCC1CN1CCCCC1 (configuration not stated) in the assay.
Output line: inactive
